Molecular target: hFASN enzyme (full length) (Homo sapiens, UniProt P49327)
Construct: 10 μL hFASN enzyme (full length, 300 ng, purified in house); made in house
Sequence (P49327 whole entry): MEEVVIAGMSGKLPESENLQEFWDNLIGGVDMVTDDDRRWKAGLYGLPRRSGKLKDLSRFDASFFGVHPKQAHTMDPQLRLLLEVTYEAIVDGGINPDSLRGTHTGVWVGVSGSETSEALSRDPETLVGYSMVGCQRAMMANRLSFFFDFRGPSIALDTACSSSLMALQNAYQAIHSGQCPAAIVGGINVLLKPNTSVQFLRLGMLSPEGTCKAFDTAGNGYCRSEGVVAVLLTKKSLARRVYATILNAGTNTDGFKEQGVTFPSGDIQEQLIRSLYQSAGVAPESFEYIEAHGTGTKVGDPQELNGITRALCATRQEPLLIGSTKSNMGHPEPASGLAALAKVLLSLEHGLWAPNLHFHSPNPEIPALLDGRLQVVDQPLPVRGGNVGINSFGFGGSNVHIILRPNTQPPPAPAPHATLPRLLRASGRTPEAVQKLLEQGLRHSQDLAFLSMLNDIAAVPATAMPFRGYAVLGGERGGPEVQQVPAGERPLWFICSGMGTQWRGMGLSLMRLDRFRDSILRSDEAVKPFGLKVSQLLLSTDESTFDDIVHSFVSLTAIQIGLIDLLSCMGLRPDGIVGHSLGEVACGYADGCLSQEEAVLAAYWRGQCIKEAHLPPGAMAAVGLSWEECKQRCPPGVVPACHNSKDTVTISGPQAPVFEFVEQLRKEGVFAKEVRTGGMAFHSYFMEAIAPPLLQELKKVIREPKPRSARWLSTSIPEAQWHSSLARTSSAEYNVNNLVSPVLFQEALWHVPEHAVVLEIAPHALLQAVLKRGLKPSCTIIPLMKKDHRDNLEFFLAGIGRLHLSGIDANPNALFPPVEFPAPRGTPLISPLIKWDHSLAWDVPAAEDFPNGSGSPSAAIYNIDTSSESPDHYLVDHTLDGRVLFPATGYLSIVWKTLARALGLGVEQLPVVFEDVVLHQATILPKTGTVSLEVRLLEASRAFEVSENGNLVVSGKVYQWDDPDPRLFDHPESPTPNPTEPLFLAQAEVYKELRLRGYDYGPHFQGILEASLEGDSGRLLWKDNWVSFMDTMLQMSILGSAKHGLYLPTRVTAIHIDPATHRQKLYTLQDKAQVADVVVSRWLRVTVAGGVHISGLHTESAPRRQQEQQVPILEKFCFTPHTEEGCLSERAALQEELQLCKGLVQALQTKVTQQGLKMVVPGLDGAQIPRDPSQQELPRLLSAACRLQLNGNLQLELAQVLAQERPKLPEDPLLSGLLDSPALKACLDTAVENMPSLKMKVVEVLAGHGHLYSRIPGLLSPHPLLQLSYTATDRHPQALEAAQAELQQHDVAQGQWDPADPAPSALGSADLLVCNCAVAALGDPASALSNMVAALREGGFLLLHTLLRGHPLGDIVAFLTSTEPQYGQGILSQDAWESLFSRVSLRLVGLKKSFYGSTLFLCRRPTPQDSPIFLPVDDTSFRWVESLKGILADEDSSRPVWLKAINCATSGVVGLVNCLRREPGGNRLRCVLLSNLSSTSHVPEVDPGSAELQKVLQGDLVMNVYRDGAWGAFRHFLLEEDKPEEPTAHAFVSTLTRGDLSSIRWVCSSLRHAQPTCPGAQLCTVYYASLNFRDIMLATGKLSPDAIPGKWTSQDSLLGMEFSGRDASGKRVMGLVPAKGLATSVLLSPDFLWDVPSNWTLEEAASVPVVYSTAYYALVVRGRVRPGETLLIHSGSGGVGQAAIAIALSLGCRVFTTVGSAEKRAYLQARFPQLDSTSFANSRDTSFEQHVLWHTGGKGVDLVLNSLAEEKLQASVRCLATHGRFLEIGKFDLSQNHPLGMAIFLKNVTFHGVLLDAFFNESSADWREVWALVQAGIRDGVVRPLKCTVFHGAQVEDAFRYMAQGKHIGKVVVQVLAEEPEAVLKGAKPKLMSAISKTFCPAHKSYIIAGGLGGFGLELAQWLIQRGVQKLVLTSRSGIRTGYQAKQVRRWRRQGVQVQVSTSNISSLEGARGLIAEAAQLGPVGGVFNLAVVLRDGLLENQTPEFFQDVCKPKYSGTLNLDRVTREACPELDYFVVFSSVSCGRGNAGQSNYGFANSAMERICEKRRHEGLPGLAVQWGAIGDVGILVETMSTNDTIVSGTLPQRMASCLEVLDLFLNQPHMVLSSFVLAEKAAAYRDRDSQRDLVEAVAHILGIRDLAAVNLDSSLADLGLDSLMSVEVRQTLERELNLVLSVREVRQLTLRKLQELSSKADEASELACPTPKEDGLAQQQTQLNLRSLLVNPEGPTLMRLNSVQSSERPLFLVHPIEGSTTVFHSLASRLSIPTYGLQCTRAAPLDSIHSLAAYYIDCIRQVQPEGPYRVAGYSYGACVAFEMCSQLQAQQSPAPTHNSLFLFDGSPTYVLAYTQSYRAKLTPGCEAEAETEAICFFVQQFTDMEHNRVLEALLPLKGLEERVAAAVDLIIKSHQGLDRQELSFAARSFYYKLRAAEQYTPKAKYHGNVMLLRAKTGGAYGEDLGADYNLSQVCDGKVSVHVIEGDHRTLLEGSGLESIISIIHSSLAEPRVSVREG
Assay: Fatty Acid Synthase (FASN) inhibition scintillation proximity assay
Format: biochemical
Details: read-out: Human FASN pIC50 (converted)
Method: In this assay, inhibition of FASN activity is measured using ^3H-acetyl-CoA and malonyl-CoA as substrates. ^3H-Acetyl CoA is converted to ^3H-palmitate through a series of reactions by the FASN protein, which contains 7 functional domains and carries out 7 enzymatic reactions to ultimately produce ^3H-palmitate. The assay principle is based upon the fact that ^3H-acetyl-CoA is hydrophilic and the end product, ^3H-palmitate is hydrophobic. […]
Below, each entry is listed with its recorded log10 of IC50.
PROPERTY: log10 of IC50 (log10 of the value in nM)

> print(dat)
                                    molecule  quantitative.result
 1  COc1ccc2ccc(-c3ccc(C4=NC5(CC5)C(=O)N4CC4CN(C(=O)C5(O)CC5)C4)c(F)c3)cc2c1 [compound 617]                 2.22
 2  O=C(C1CC1)N1CCC[C@@H](CN2C(=O)C3(CC3)N=C2c2ccc(-c3ccc4[nH]ncc4c3)cc2)C1 [compound 389]                 3.86
 3  O=C(C1CC1)N1CC[C@@H](CN2C(=O)C3(CC3)N=C2c2ccc(-c3ccc4cc[nH]c4c3)cc2)C1 [compound 301]                 1.30
 4  O=C(C1CC1)N1CC[C@@H](CN2C(=O)C3(CCCC3)N=C2c2ccc(-c3ccc4ccncc4c3)cc2)C1 [compound 69]                 2.35
 5  COC(=O)N1CC2(C1)N=C(c1ccc(-c3ccc4c(cnn4C)c3)cc1)N(C[C@@H]1CCN(C(=O)C(C)O)C1)C2=O (some centres unmarked) [compound 738]                 3.28
 6  Cc1cc(-c2ccc(C3(C#N)CC3)cc2F)ccc1C1=NC2(CC2)C(=O)N1CC1CN(C(=O)C2(C)CC2)C1 [compound 593]                 3.85
 7  CC(O)C(=O)N1CC[C@@H](CN2C(=O)C3(CCOCC3)N=C2c2ccc(-c3ccc4cccnc4c3)cc2)C1 (some centres unmarked) [compound 662]                 2.48
 8  O=C(N1CCCC1)N1CC[C@@H](CN2C(=O)C3(CCOC3)N=C2c2ccc(-c3ccc4occc4c3)cc2)C1 (some centres unmarked) [compound 689]                 3.61
 9  N#Cc1ccc2cc(-c3ccc(C4=NC5(CC5)C(=O)N4CC4CN(C(=O)C5(F)CC5)C4)c(F)c3)ccc2c1 [compound 225]                 1.58
10  O=C(N1CCCC1)N1CC[C@@H](CN2C(=O)C3(CCCC3)N=C2c2ccc(-c3ccc4occc4c3)cc2)C1 [compound 117]                 2.31
